This collection of values is drawn from ChEMBL document CHEMBL1124226.

System: P388
Experiment: In vivo for the optimal dose for activity against P388 leukemia per injection
Type: functional, Mus musculus
METRIC NAME: Dose (mg/kg)
Record the value in mg/kg, omitting the unit from your answer.

Quick note, Dose for `CCN(CC)CCn1nc2c3c(c(NCCNCCO)ccc31)Sc1ccc(OC)cc1-2.Cl` landed at 25

Quick note, Dose for `Br.CCN(CC)CCn1nc2c3c(c(NCCNCCO)ccc31)Sc1c(O)ccc(O)c1-2` landed at 50

Quick note, Dose for `CC(=O)NCCn1nc2c3c(c(N)ccc31)Sc1ccccc1-2.Cl` landed at 100

---

System: P388
Assay: Percentage T/C survival (treated vs control) against P388 leukemia (day 30 surv)
Format: functional, Mus musculus
METRIC NAME: T/C (%)
Record the value in %, omitting the unit from your answer.

Lab entry: P388 assay, molecule `Cl.Nc1ccc2c3c(nn2CCNCCO)-c2ccccc2Sc13.O` , T/C = 188

Lab entry: P388 assay, molecule `CCN(CC)CCn1nc2c3c(c(NC(=O)CN)ccc31)Sc1ccccc1-2.Cl.O` , T/C = 184

Lab entry: P388 assay, molecule `Cl.O.O=S1(=O)c2ccccc2-c2nn(CCNCCO)c3ccc(NCCNCCO)c1c23` , T/C = 168

Lab entry: P388 assay, molecule `Cl.NCCn1nc2c3c(c(NCCNCCO)ccc31)Sc1ccccc1-2` , T/C = 233

Lab entry: P388 assay, molecule `CCN(CC)CCn1nc2c3c(c(NCCNC(=O)OC(C)(C)C)ccc31)Sc1cc(OC)ccc1-2` , T/C = 93

Lab entry: P388 assay, molecule `CC(=O)NCCn1nc2c3c(c(N)ccc31)Sc1ccccc1-2.Cl` , T/C = 100

Lab entry: P388 assay, molecule `CN(C)CCn1nc2c3c(c(N)ccc31)Sc1ccccc1-2.Cl.O` , T/C = 165

Lab entry: P388 assay, molecule `CCN(CC)CCn1nc2c3c(c(NCCN4C(=O)c5ccccc5C4=O)ccc31)Sc1c(OC)cccc1-2` , T/C = 107

Lab entry: P388 assay, molecule `CN(C)CCCn1nc2c3c(c(N)ccc31)Sc1ccccc1-2.Cl.O` , T/C = 197

---

Consider the following molecules; for each one, report its Dose.
Tested on: P388
Test: In vivo for the optimal dose for activity against P388 leukemia per injection
Type: functional, Mus musculus
Record the value in mg/kg, omitting the unit from your answer.

Quick note, Dose for `CCN(CC)CCn1nc2c3c(c(NCCN)ccc31)Sc1c(O)cccc1-2.Cl.O` landed at 6.3

Quick note, Dose for `CCN(CC)CCn1nc2c3c(c(NCCNCCO)ccc31)Sc1ccc(O)cc1-2.Cl.O` landed at 1.5

Quick note, Dose for `CCN(CC)CCn1nc2c3c(c(N)ccc31)Sc1ccc(OC)cc1-2.Cl` landed at 50

Quick note, Dose for `Br.CCN(CC)CCn1nc2c3c(c(NCCN)ccc31)Sc1cccc(O)c1-2` landed at 12.5

Quick note, Dose for `CCN(CC)CCNc1ccc2c3c(nn2CCN(CC)CC)-c2ccccc2S(=O)(=O)c13` landed at 12.5

Quick note, Dose for `CCN(CC)CCn1nc2c3c(c(NC(=O)CN)ccc31)Sc1cc(O)ccc1-2.Cl.O` landed at 100

---

Consider the following compounds; for each one, report its log10(Dose).
Test system: P388
Test: In vivo for the optimal dose for activity against P388 leukemia per injection
Format: functional, Mus musculus
Scale: decimal log of Dose, Dose in mg/kg.

Quick note, log10(Dose) for `CCN(CC)CCn1nc2c3c(c(NCCN)ccc31)Sc1cc(O)ccc1-2.Cl.O` landed at 0.80

Quick note, log10(Dose) for `Cl.Nc1ccc2c3c(nn2CCNCCO)-c2ccccc2Sc13.O` landed at 1.40

Quick note, log10(Dose) for `Cl.O.O=S1(=O)c2ccccc2-c2nn(CCNCCO)c3ccc(NCCNCCO)c1c23` landed at 2.30

Quick note, log10(Dose) for `CN(C)CCCn1nc2c3c(c(N)ccc31)Sc1ccccc1-2.Cl.O` landed at 2.00

Quick note, log10(Dose) for `Br.Nc1ccc2c3c(nn2CCNCCO)-c2cc(O)ccc2Sc13` landed at 0.49

Quick note, log10(Dose) for `CCN(CC)CCn1nc2c3c(c(N)ccc31)Sc1ccc(O)cc1-2.Cl.O` landed at 0.80

Quick note, log10(Dose) for `CCN(CC)CCn1nc2c3c(c(N)ccc31)Sc1ccccc1-2` landed at 1.40

Quick note, log10(Dose) for `CCN(CC)CCn1nc2c3c(c(N)ccc31)Sc1c(OC)cccc1-2.Cl` landed at 1.40

Quick note, log10(Dose) for `CC(=O)NCCn1nc2c3c(c(NCCN4CCOC4=O)ccc31)Sc1ccccc1-2` landed at 1.10

Quick note, log10(Dose) for `CCN(CC)CCNc1ccc2c3c(nn2CCN(CC)CC)-c2ccccc2Sc13.Cl` landed at 1.40
